Cited source: ChEMBL document CHEMBL1201862

- System: CAKI-1
- assay protocol: NCI tumour cell line growth inhibition, 48 h
The source made the active and inactive calls. No stated cut-off is given here; in the data, active = GI50 up to about 1.1 µM and inactive = higher. Square brackets hold non-standard residues; d marks the D form. Peptide text beside a SMILES is read from it. Phe(4-Cl) = N[CH](Cc1ccc(Cl)cc1)C(=O)O; 2Nal = N[CH](Cc1ccc2ccccc2c1)C(=O)O; 3Pal = N[CH](Cc1cccnc1)C(=O)O
# key: entry, value: GI50

[
  {
    "compound": "CC(=O)Nc1ccccc1-c1nc2ccccc2nc1C",
    "tested system": "CAKI-1",
    "GI50": "> 100 µM (inactive)"
  },
  {
    "compound": "COc1cc(Cn2c3c(c4c(C(=O)NCCN(C)C)c(O)ccc42)C(=O)c2ccccc2C3=O)cc(OC)c1",
    "tested system": "CAKI-1",
    "GI50": "1.68 µM (inactive)"
  },
  {
    "compound": "COc1ccc(C[C@H]2COC(=O)[C@@H]2Cc2ccc(Br)cc2)cc1OC",
    "tested system": "CAKI-1",
    "GI50": "34 µM (inactive)"
  },
  {
    "compound": "COc1ccc(/C=C2\\C[C@H]3[C@@H]4CCC5=C[C@@H](N6CCCC6)CC[C@]5(C)[C@H]4CC[C@]3(C)[C@H]2O)cc1",
    "tested system": "CAKI-1",
    "GI50": "3.52 µM (inactive)"
  },
  {
    "compound": "CNC1=CC(=O)C2=C(C1=O)[C@H]1CC[C@]3(C)C(=O)CC[C@H]3[C@@H]1CC2",
    "tested system": "CAKI-1",
    "GI50": "13.6 µM (inactive)"
  },
  {
    "compound": "CCCN1C(=O)CNC(=O)c2[nH]cnc21",
    "tested system": "CAKI-1",
    "GI50": "> 100 µM (inactive)"
  },
  {
    "compound": "CC(=O)NC(Cc1ccc2ccccc2c1)C(=O)NC(Cc1ccc(Cl)cc1)C(=O)NC(Cc1cccnc1)C(=O)NC(CO)C(=O)NC(Cc1ccc(O)cc1)C(=O)NC(CCCN=C(N)N)C(=O)NC(CC(C)C)C(=O)NC(CCCN=C(N)N)C(=O)N1CCCC1C(=O)NC(C)C(N)=O (stereo not drawn) (Ac-[2Nal][Phe(4-Cl)][3Pal]SYRLRPA-NH2; configuration not given here)",
    "tested system": "CAKI-1",
    "GI50": "> 100 µM (inactive)"
  },
  {
    "compound": "N#Cc1ccc(/C=C2\\Cc3ccccc3C2=O)cc1",
    "tested system": "CAKI-1",
    "GI50": "26.2 µM (inactive)"
  },
  {
    "compound": "COC(=O)/C=C/c1cc(OC)c2oc(-c3ccc(OC)c(OC)c3)c(C(=O)OC)c2c1",
    "tested system": "CAKI-1",
    "GI50": "> 100 µM (inactive)"
  },
  {
    "compound": "O=C(N/C(=C\\c1cccc([N+](=O)[O-])c1)c1nc2cc([N+](=O)[O-])ccc2[nH]1)c1ccccc1",
    "tested system": "CAKI-1",
    "GI50": "30.4 µM (inactive)"
  },
  {
    "compound": "CCOC(=O)C(C(=O)OCC)=C1NC2(c3ccccc3Nc3ccc(C)cc32)C(C#N)S1 (stereo not drawn)",
    "tested system": "CAKI-1",
    "GI50": "11.8 µM (inactive)"
  },
  {
    "compound": "C=CCNC(=O)/C=C\\C(=O)O",
    "tested system": "CAKI-1",
    "GI50": "> 100 µM (inactive)"
  },
  {
    "compound": "O=S(=O)(N/C(=N\\O)Nc1ccc(Cl)cc1)c1ccccc1",
    "tested system": "CAKI-1",
    "GI50": "2.07 µM (inactive)"
  },
  {
    "compound": "CN(C)CCSCCO",
    "tested system": "CAKI-1",
    "GI50": "> 100 µM (inactive)"
  },
  {
    "compound": "Cc1ccc2[nH]c3c(c2c1)C1CCC(C(C)(C)C)CC1C1C(=O)N(c2ccc4c(c2)OCO4)C(=O)C31 (stereo not drawn)",
    "tested system": "CAKI-1",
    "GI50": "2.3 µM (inactive)"
  },
  {
    "compound": "c1ccc(-c2nnc3nn4c(-c5ccccc5)cnnc4c3c2-c2ccccc2)cc1",
    "tested system": "CAKI-1",
    "GI50": "23.7 µM (inactive)"
  },
  {
    "compound": "O=C1CC(=O)NC(NN2C(=O)CSC2c2ccc(Cl)c(Cl)c2)=N1 (stereo not drawn)",
    "tested system": "CAKI-1",
    "GI50": "> 100 µM (inactive)"
  },
  {
    "compound": "C/C=C(/C)C(=O)O[C@H](C[C@@H](C)[C@H]1CC(c2ccoc2)OC1=O)[C@@]1(C)C(=O)CCC2O[C@]21C (stereo partly drawn)",
    "tested system": "CAKI-1",
    "GI50": "> 100 µM (inactive)"
  }
]
